assay_overview: In vivo biodistribution in normal ICR mice
details: i.v., 10 min
measurement_label: Biodistribution of radioactivity, lung (% injected dose per gram)

Examples with answers:
[[record]]
compound = "FCCOc1ccc(COc2ccc([125I])cc2)cc1 [[^125I]12a]"
measurement_label = "Biodistribution of radioactivity, lung"
reported_result = 4.16

[[record]]
compound = "[18F]CCOc1ccc(OCc2ccc(I)cc2)cc1 [[^18F]7a]"
measurement_label = "Biodistribution of radioactivity, lung"
reported_result = 4.63


I: [18F]CCOc1ccc(COc2ccc(I)cc2)cc1 [[^18F]12a]
II: FCCOc1ccc(OCc2ccc([125I])cc2)cc1 [[^125I]7a]
query: Of I and II , which carries the smaller reported Biodistribution of radioactivity, lung figure? In your reply, give the label of the chosen option.
result: I
(I: 4.91 % injected dose per gram, II: 7.44 % injected dose per gram)
